Quick reference: A/G of the listed items.
- Species: Rattus norvegicus
- Assay overview: Open TG-GATES - Regimen: Daily Repeat
- Assay type: toxicity, organism-based, Sprague-Dawley
- Design: regimen Daily Repeat, gender Male, age 6 weeks
- Experimental setup: in vivo, po, 0 mg/kg, 72 h, tissue Plasma, route gavage, dose level Control, time 3 day
A bare number is all that is needed in reply.

QUERY: Please give the documented A/G of `CN(C/C=C/C#CC(C)(C)C)Cc1cccc2ccccc12`
RESULT: 1.6

QUERY: Please give the documented A/G of CC(S)C(=O)NCC(=O)O (stereo not given)
RESULT: 1.1

QUERY: Please give the documented A/G of `Nc1ccc(Cc2ccc(N)cc2)cc1`
RESULT: 0.8

QUERY: Please give the documented A/G of CN(CCOc1ccc(CC2SC(=O)NC2=O)cc1)c1ccccn1.O=C(O)/C=C\C(=O)O (stereo not given) [ROSIGLITAZONE MALEATE]
RESULT: 2.2

New cases:
QUERY: Please give the documented A/G of CCCCNC(=O)NS(=O)(=O)c1ccc(C)cc1 [TOLBUTAMIDE]
RESULT: 0.9

The measurements presented in this section are drawn from ChEMBL document CHEMBL3885861.
